Provenance of the data: the supplement of paper PMC10307832

# Test system: HCC-827
# assay.info: relative viability (nuclei count vs DMSO), 5 days (fraction); higher = more cells survive
# run.parameters: first compound 6.325 µM
Form field: relative viability (one value per entry).

molecule: COCC1(CO)C(=O)C2CCN1CC2 (stereo unspecified) [PRIMA-1MET] + O=C(CCCCCCC(=O)Nc1ccccc1)NO [Vorinostat] (partner 1 µM)
relative viability: 0.816

molecule: COCC1(CO)C(=O)C2CCN1CC2 (stereo unspecified) [PRIMA-1MET] + N=C(N)NC(=N)NCCc1ccccc1 [Phenformin] (partner 250 µM)
relative viability: 0.367

molecule: COCC1(CO)C(=O)C2CCN1CC2 (stereo unspecified) [PRIMA-1MET] + CS(=O)(=O)N1CCN(Cc2cc3nc(-c4cccc5[nH]ncc45)nc(N4CCOCC4)c3s2)CC1 [Pictilisib] (partner 1 µM)
relative viability: 1.08

molecule: COCC1(CO)C(=O)C2CCN1CC2 (stereo unspecified) [PRIMA-1MET] + O=C(c1cc(Cc2n[nH]c(=O)c3ccccc23)ccc1F)N1CCN(C(=O)C2CC2)CC1 [Olaparib] (partner 8 µM)
relative viability: 0.684

molecule: COCC1(CO)C(=O)C2CCN1CC2 (stereo unspecified) [PRIMA-1MET] + C[C@]1(O)C[C@@H](c2nc(-c3ccc4ccc(-c5ccccc5)nc4c3)c3c(N)nccn32)C1 [Linsitinib] (partner 1 µM)
relative viability: 0.962

molecule: COCC1(CO)C(=O)C2CCN1CC2 (stereo unspecified) [PRIMA-1MET] + COc1cccc2cc(-c3nc([C@H]4CC[C@H](C(=O)O)CC4)n4ncnc(N)c34)[nH]c12 [OSI-027] (partner 0.5 µM)
relative viability: 0.784

----------
# System: NCI-H1650
# assay.info: relative viability (nuclei count vs DMSO), 5 days (fraction); higher = more cells survive
# run.parameters: first compound 0.08 µM
Each record here notes measured relative viability.

molecule: COc1nc(C)cnc1NS(=O)(=O)c1cccnc1-c1ccc(-c2nnco2)cc1 [Zibotentan] + CS(=O)(=O)CCNCc1ccc(-c2ccc3ncnc(Nc4ccc(OCc5cccc(F)c5)c(Cl)c4)c3c2)o1 [Lapatinib] (partner 2 µM)
relative viability: 0.732

molecule: O=c1cc(-c2cccc3c2Sc2ccccc2S3)oc(N2CCOCC2)c1 + Nc1nc2[nH]cc(CCc3ccc(C(=O)N[C@@H](CCC(=O)O)C(=O)O)cc3)c2c(=O)[nH]1 [Pemetrexed] (partner 0.2 µM)
relative viability: 0.362

molecule: COc1nc(C)cnc1NS(=O)(=O)c1cccnc1-c1ccc(-c2nnco2)cc1 [Zibotentan] + N=C(N)NC(=N)NCCc1ccccc1 [Phenformin] (partner 250 µM)
relative viability: 0.454

molecule: O=c1cc(-c2cccc3c2Sc2ccccc2S3)oc(N2CCOCC2)c1 + C[C@@H](Oc1cc(-c2cnn(C3CCNCC3)c2)cnc1N)c1c(Cl)ccc(F)c1Cl [Crizotinib] (partner 1 µM)
relative viability: 0.998

molecule: O=c1cc(-c2cccc3c2Sc2ccccc2S3)oc(N2CCOCC2)c1 + CC1(C)CCC(c2ccc(Cl)cc2)=C(CN2CCN(c3ccc(C(=O)NS(=O)(=O)c4ccc(N[C@H](CCN5CCOCC5)CSc5ccccc5)c(S(=O)(=O)C(F)(F)F)c4)cc3)CC2)C1 [Navitoclax] (partner 0.5 µM)
relative viability: 1.05

molecule: COc1nc(C)cnc1NS(=O)(=O)c1cccnc1-c1ccc(-c2nnco2)cc1 [Zibotentan] + Nc1nc2[nH]cc(CCc3ccc(C(=O)N[C@@H](CCC(=O)O)C(=O)O)cc3)c2c(=O)[nH]1 [Pemetrexed] (partner 0.2 µM)
relative viability: 0.364

molecule: COc1nc(C)cnc1NS(=O)(=O)c1cccnc1-c1ccc(-c2nnco2)cc1 [Zibotentan] + COc1cc2c(Oc3ccc(NC(=O)C4(C(=O)Nc5ccc(F)cc5)CC4)cc3F)ccnc2cc1OCCCN1CCOCC1 [Foretinib] (partner 0.25 µM)
relative viability: 1.04

molecule: O=c1cc(-c2cccc3c2Sc2ccccc2S3)oc(N2CCOCC2)c1 + COc1cccc2cc(-c3nc([C@H]4CC[C@H](C(=O)O)CC4)n4ncnc(N)c34)[nH]c12 [OSI-027] (partner 0.5 µM)
relative viability: 0.615

molecule: COc1nc(C)cnc1NS(=O)(=O)c1cccnc1-c1ccc(-c2nnco2)cc1 [Zibotentan] + Cc1cc(Nc2cc(N3CCN(C)CC3)nc(Sc3ccc(NC(=O)C4CC4)cc3)n2)n[nH]1 [Tozasertib] (partner 0.1 µM)
relative viability: 0.491

molecule: O=c1cc(-c2cccc3c2Sc2ccccc2S3)oc(N2CCOCC2)c1 + Cc1nc(Nc2ncc(C(=O)Nc3c(C)cccc3Cl)s2)cc(N2CCN(CCO)CC2)n1 [Dasatinib] (partner 0.075 µM)
relative viability: 0.327
